# EXPERIMENTAL SYSTEM: Troponin I, cardiac muscle (Homo sapiens) + Troponin T, cardiac muscle (Homo sapiens) + Troponin C, slow skeletal and cardiac muscles (Homo sapiens) (UniProt P19429+P45379+P63316)
# TEST DESCRIPTION: cardiac RTF calcium sensitivity activators, confirmation, biochemical, IANBD-TnC fluorescence, triplicate (AID 504383)
# CONDITION: IANBD-labeled cardiac RTF, Ca2+ sensitivity fluorescence; at 7.2 µM; scaled from EC20 to saturating calcium; tested at EC20 calcium, 0.472 mM
Screen size: about 2,500 compounds; about 1,200 (48%) were called active.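 How the source made its calls: active means mean activation above the low control average plus 3 SD, as set in the primary screen (cut at about 12% in these data); inactive means the rest.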 So high a share suggests a set chosen from earlier hits. The list shows a part of the results.
Labels: Y for active, N for inactive

{"CPD SMILES": "Cc1ccc(S(=O)(=O)Nc2nc3ccccc3nc2NCc2ccco2)cc1", "ASSIGNED CATEGORY": "Y"}
{"CPD SMILES": "CCOC(=O)c1[nH]c2ccc(OCC)cc2c1CCCN1C(=O)c2ccccc2C1=O", "ASSIGNED CATEGORY": "Y"}
{"CPD SMILES": "Nc1nc(NCc2ccco2)nc(N2CCCCCC2)c1[N+](=O)[O-]", "ASSIGNED CATEGORY": "N"}
{"CPD SMILES": "O=S(=O)(c1ccc(NC(=S)Nc2ccccc2)cc1)N1CCOCC1", "ASSIGNED CATEGORY": "Y"}
{"CPD SMILES": "CN(C)NC(=S)Nc1ccc(S(=O)(=O)N2CCCCC2)cc1", "ASSIGNED CATEGORY": "Y"}
{"CPD SMILES": "O=[n+]1c2c(n([O-])c3cc(F)c(N4CCCC4)cc31)CCCC2", "ASSIGNED CATEGORY": "Y"}
